system: MDA-mb-231; experiment: MTT anti-proliferative assay, MDA-mb-231; type: cell-based; conditions: SI = Cytotoxicity against Vero cells / Cytotoxicity against MDA-MB-231 cell line
Returns: string. Value is Condition met if measured Selectivity index (MDA-MB-231) is below 3, and Condition not met if it is greater than or equal to it.

• O=C(CN1C(=O)SC(=C2C(=O)Nc3ccccc32)C1=O)NCCc1ccccc1 [Compound 14c] = Condition met
• COc1ccc2[nH]c(=O)c(/C=C3\SC(=O)N(CC(=O)Nc4ccc(Cl)cc4)C3=O)cc2c1 [Compound 10a] = Condition met
• COc1ccc2[nH]c(=O)c(/C=C3\SC(=O)N(CC(=O)Nc4cc(Cl)ccc4Cl)C3=O)cc2c1 [Compound 10b] = Condition not met
• O=C(CN1C(=O)SC(=C2C(=O)Nc3ccccc32)C1=O)Nc1ccc(Cl)cc1 [Compound 14a] = Condition not met
• O=C(CN1C(=O)SC(=C2C(=O)Nc3ccccc32)C1=O)Nc1cc(Cl)ccc1Cl [Compound 14b] = Condition not met
